Hey, just so you know, these numbers are from patent US9255101B2.

biological target: human H4 receptor (Homo sapiens, UniProt Q9H3N8); test: biochemical
Sequence (Q9H3N8 whole entry): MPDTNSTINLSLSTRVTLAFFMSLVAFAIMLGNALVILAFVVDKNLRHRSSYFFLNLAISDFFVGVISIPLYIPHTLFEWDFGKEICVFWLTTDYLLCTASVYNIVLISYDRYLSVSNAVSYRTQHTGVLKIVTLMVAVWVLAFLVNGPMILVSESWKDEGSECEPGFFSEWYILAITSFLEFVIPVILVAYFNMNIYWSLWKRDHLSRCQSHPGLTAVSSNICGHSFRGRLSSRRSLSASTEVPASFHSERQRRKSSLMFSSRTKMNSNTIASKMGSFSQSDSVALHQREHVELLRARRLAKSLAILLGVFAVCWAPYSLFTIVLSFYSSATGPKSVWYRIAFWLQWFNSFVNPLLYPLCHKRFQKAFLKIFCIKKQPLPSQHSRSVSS
pKi: −log10 of the molar value. Counter-ions that a name gives are not always drawn.
Catalogue of molecules with associated pKi

molecule: CN1CCC(OC2c3ccccc3CCn3cc(-c4ccc(Cl)cc4)nc32)CC1 (centres unmarked) [Example 52, oxalate]
pKi: > 7.52

molecule: CN1CCC(OC2c3ccccc3CCn3c2nc(I)c3C#N)CC1 (centres unmarked) [Example 221]
pKi: > 6.00

molecule: Cc1ccc(-c2cn3c(n2)C(OC2CCN(C)CC2)c2ccccc2CC3)o1 (centres unmarked) [Example 51, oxalate]
pKi: > 6.52

molecule: Cc1c(-c2ccc(C(=O)NC3CCC(O)CC3)cc2)nc2n1CCc1ccccc1C2OC1CCN(C)CC1 (centres unmarked) [Example 216]
pKi: > 6.52

Kindly review the next molecule as well.
Asked: Name the recorded pKi of the molecule listed here: CCOC(=O)c1nc2n(c1C)CCc1ccccc1C2OC1CCN(C)CC1 (centres unmarked) [Example 118]
Given back: > 6.00

---

molecular target: human H4 receptor (Homo sapiens); experiment: biochemical
Examples of molecules with documented Ki follow.

molecule: CN1CCC(OC2c3ccccc3CCn3cc(SCCc4ccccc4)nc32)CC1 (centres unmarked)
Ki: < 30 nM

Asked: # return recorded Ki for entry COc1cccc(-c2cccc3c2CCn2cc(-c4ccccc4)nc2C3OC2CCN(C)CC2)c1 (centres unmarked)
Given back: < 300 nM

Asked: Identify Ki associated with the molecule Cc1ccccc1-c1cn2c(n1)C(OC1CCN(C)CC1)c1ccccc1CC2 (centres unmarked)
Given back: < 300 nM

---

Known pKi of a selection of molecules
target: human H4 receptor (Homo sapiens, UniProt Q9H3N8); test: biochemical;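 further: radioligand displacement of a [3H]-labelled ligand from membranes of CHO cells stably expressing human H4 receptor, bound radioactivity counted on filters by liquid scintillation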
pKi: −log10 of the molar value. Counter-ions that a name gives are not always drawn.

Solved entries (count: 5):
molecule: CN1CCC(OC2c3ccccc3CCn3cc(-c4ccc(CCSC(C)(C)C)cc4)nc32)CC1 (stereo not shown) [Example 189]
pKi: > 6.52

molecule: CN1CCC(OC2c3ccccc3CCn3cc(-c4ccc(C(=O)C(F)(F)F)cc4)nc32)CC1 (stereo not shown) [Example 31, oxalate]
pKi: > 6.52

molecule: CNc1cccc2c1CCn1cc(-c3ccccc3)nc1C2OC1CCN(C)CC1 (stereo not shown) [Example 244]
pKi: > 6.00

molecule: CN1CCC(OC2c3ccccc3CCn3c2nc(I)c3I)CC1 (stereo not shown) [Example 219]
pKi: > 7.52

molecule: Cc1c(C2=CCCCC2)nc2n1CCc1ccccc1C2OC1CCN(C)CC1 (stereo not shown) [Example 226]
pKi: > 7.52

Asked: Entry Cc1c(-c2ccc(CCS(C)(=O)=O)cc2)nc2n1CCc1ccccc1C2OC1CCN(C)CC1 (stereo not shown) [Example 159] needs its pKi filled in; supply it.
Given back: > 7.52

Asked: Identify the reported pKi for the following entry. CN1CCC(OC2c3ccccc3CCn3cc(-c4ccc(CO)cc4)nc32)CC1 (stereo not shown) [Example 18]
Given back: > 6.00

---

Catalogue of melting point values
Be sure to follow the number with its unit.

molecule: CN1CCC(OC2c3ccccc3CCn3cc(I)nc32)CC1 (stereo not drawn) [Example 2]
endpoint_value: 126 °C

molecule: CN1CCC(OC2c3ccccc3CCn3c2nc(-c2ccccc2)c3C=O)CC1 (stereo not drawn) [Example 262]
endpoint_value: 70 °C

molecule: COc1ccccc1-c1nc2n(c1C)CCc1ccccc1C2OC1CCN(C)CC1 (stereo not drawn) [Example 149]
endpoint_value: 139 °C

molecule: Cc1c(C(=O)N(C)c2ccccc2)nc2n1CCc1ccccc1C2OC1CCN(C)CC1 (stereo not drawn) [Example 204]
endpoint_value: 75 °C

molecule: COc1ccc(-c2nc3n(c2C)CCc2ccccc2C3OC2CCN(C)CC2)cc1 (stereo not drawn) [Example 156]
endpoint_value: 164 °C

molecule: Cc1ccccc1-c1nc2n(c1C)CCc1ccccc1C2OC1CCN(C)CC1 (stereo not drawn) [Example 147]
endpoint_value: 74 °C

molecule: Cc1c(-c2ccc(C3=CCN(C(=O)OC(C)(C)C)CC3)cc2)nc2n1CCc1ccccc1C2OC1CCN(C)CC1 (stereo not drawn) [Example 168]
endpoint_value: 171 °C

molecule: Cc1c(-c2ccccc2Cl)nc2n1CCc1ccccc1C2OC1CCN(C)CC1 (stereo not drawn) [Example 146]
endpoint_value: 78 °C

Asked: Give me measured melting point, please, for this molecule: CN1CCC(OC2c3ccccc3CCn3c(I)cnc32)CC1 (stereo not drawn) [Example 3]
Given back: 163 °C
